Tested system: human Chk2 kinase (Homo sapiens, UniProt O96017)
Sequence (O96017 whole entry): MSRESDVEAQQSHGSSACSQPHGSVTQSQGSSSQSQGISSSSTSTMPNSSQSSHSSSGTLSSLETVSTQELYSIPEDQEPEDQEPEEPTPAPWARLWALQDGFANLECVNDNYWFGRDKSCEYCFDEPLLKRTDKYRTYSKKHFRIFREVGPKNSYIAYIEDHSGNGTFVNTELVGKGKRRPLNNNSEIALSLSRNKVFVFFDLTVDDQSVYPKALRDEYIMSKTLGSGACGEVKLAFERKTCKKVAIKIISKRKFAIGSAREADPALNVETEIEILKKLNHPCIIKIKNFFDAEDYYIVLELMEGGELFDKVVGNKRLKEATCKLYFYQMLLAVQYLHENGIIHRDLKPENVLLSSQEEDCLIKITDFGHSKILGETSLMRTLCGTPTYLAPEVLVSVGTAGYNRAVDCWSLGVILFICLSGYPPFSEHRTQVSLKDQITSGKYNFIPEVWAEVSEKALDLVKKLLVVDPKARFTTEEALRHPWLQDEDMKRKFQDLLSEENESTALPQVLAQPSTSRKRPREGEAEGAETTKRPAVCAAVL
Test details: biochemical
IC50: recorded values

| Compound | IC50 |
| --- | --- |
| CN(C)c1cc(N2CC[C@@H](N(C)C)C2)ccc1-n1cnc(Nc2cnc(C#N)cn2)c1 [Example 83] | 10 to 100 µM |
| CN1CC2(CC(Oc3cccc(-n4cnc(Nc5cnc(C#N)cn5)c4)c3)C2)C1 [Example 175] | 10 to 100 µM |
| N#Cc1cnc(Nc2cn(-c3ccc(N4CCC(N5CC(F)C5)C4)cc3)cn2)cn1 (single isomer, unassigned) [Example 130] | 1 to 10 µM |
| N#Cc1cnc(Nc2cn(-c3ccc(N4CCN(C5COC5)CC4)cc3)cn2)cn1 [Example 182] | 10 to 100 µM |
| CN[C@@H]1CCN(c2ccc(-n3cnc(Nc4cnc(C#N)cn4)c3)cc2)C1 [Example 155] | 1 to 10 µM |
| Cc1cc(-n2cnc(Nc3cnc(C#N)cn3)c2)ccc1N1CC[C@@H](N2CCC2)C1 [Example 104] | 10 to 100 µM |
| CN(C)C1CCN(c2ccc(-n3cnc(Nc4cnc(C#N)cn4)c3)cc2)CC1 [Example 37] | 1 to 10 µM |
| CN1CCC(N(C)c2cccc(-n3cnc(Nc4cnc(C#N)cn4)c3)c2)CC1 [Example 43] | 10 to 100 µM |
| C[C@H]1CN(C)CCN1c1ccc(-n2cnc(Nc3cnc(C#N)cn3)c2)cc1 [Example 17] | 10 to 100 µM |
| CN(C)[C@@H]1CCN(c2cnc(-n3cnc(Nc4cnc(C#N)cn4)c3)cn2)C1 [Example 52] | 10 to 100 µM |
| CN(C)[C@@H]1CCN(c2cccc(-n3cnc(Nc4cnc(C#N)cn4)c3)c2)C1 [Example 38] | 10 to 100 µM |
| COc1cc(CN2CC[C@@H](F)C2)cc(F)c1-n1cnc(Nc2cnc(C#N)cn2)c1 [Example 5] | > 100 µM |
| C[N+](C)([O-])[C@@H]1CCN(c2ccc(-n3cnc(Nc4cnc(C#N)cn4)c3)cc2)C1 [Example 141] | 10 to 100 µM |
| CN1CCCC12CN(c1cccc(-n3cnc(Nc4cnc(C#N)cn4)c3)c1)C2 [Example 34] | 10 to 100 µM |
| CN1CCC12CCN(c1ccc(-n3cnc(Nc4cnc(C#N)cn4)c3)cc1)C2 (single isomer, unassigned) [Example 127] | > 100 µM |
| COc1cc(CN2CC[C@@H](F)C2)ccc1-n1cnc(Nc2cnc(C#N)cn2)c1 [Example 169] | 10 to 100 µM |
| N#Cc1cnc(Nc2cn(-c3ccc(N4CCC(N5CC6(CCC6)C5)C4)cc3)cn2)cn1 (single isomer, unassigned) [Example 131] | 1 to 10 µM |
| CC1CN(C2CCN(c3ccc(-n4cnc(Nc5cnc(C#N)cn5)c4)cc3)C2)C1 (single isomer, unassigned) [Example 126] | > 100 µM |
| Cc1ccc(-n2cnc(Nc3cnc(C#N)cn3)c2)cc1N1CC[C@@H](N(C)C)C1 [Example 58] | 10 to 100 µM |
| N#Cc1cnc(Nc2cn(-c3ccc(N4CC(CN)C4)cc3)cn2)cn1 [Example 158] | 10 to 100 µM |
| CCN1CCN(c2ccc(-n3cnc(Nc4cnc(C#N)cn4)c3)c(OC)c2)CC1 [Example 27] | 1 to 10 µM |
| CC1(C)CN(C2CCN(c3ccc(-n4cnc(Nc5cnc(C#N)cn5)c4)cc3)C2)C1 (single isomer, unassigned) [Example 123] | > 100 µM |
| CN1C[C@@H]2CN(c3ccc(-n4cnc(Nc5cnc(C#N)cn5)c4)c(F)c3)[C@@H]2C1 [Example 80] | 10 to 100 µM |
| CN1[C@@H]2COC[C@H]1CN(c1ccc(-n3cnc(Nc4cnc(C#N)cn4)c3)cc1)C2 [Example 177] | 10 to 100 µM |
| N#Cc1cnc(Nc2cn(-c3cccc(N4C[C@@H](N)[C@@H](F)C4)c3)cn2)cn1 [Example 151] | 10 to 100 µM |

Sourced from patent US20260132140A1
